Source listed as paper PMC3220798.

# tested-target: PvdQ (Pseudomonas aeruginosa)
# Sequence (Q9I194 24-193): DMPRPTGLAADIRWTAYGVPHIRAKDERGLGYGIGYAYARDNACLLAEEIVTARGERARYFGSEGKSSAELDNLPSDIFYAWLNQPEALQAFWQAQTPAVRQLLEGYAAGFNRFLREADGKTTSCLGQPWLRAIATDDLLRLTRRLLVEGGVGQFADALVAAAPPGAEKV
# Sequence (Q9I194 217-762): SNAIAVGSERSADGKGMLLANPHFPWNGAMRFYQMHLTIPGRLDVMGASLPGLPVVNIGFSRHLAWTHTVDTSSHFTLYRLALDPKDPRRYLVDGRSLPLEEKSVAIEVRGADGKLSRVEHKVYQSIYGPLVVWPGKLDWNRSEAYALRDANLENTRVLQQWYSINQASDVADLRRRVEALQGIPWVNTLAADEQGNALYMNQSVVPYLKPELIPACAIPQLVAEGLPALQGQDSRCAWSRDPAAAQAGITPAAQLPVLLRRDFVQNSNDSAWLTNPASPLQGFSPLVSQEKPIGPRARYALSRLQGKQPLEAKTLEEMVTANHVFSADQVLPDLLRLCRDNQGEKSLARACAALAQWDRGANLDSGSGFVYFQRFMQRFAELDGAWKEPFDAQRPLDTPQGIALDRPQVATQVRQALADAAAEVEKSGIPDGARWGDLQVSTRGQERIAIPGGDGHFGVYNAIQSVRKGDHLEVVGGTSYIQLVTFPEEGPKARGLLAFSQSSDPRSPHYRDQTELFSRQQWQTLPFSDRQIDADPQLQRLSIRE
# run-description: co-crystal structure
pIC50: −log10 of the molar value.
readout-name: pIC50

O=c1onc2n1-c1cc(Br)ccc1OC2 = 3.84
